I'd appreciate it if you could supply inhibition at 0.01 µM values for the items below.
- system-under-test: acetylcholinesterase (AChE) (Homo sapiens, UniProt P22303)
- Sequence (P22303 32-614): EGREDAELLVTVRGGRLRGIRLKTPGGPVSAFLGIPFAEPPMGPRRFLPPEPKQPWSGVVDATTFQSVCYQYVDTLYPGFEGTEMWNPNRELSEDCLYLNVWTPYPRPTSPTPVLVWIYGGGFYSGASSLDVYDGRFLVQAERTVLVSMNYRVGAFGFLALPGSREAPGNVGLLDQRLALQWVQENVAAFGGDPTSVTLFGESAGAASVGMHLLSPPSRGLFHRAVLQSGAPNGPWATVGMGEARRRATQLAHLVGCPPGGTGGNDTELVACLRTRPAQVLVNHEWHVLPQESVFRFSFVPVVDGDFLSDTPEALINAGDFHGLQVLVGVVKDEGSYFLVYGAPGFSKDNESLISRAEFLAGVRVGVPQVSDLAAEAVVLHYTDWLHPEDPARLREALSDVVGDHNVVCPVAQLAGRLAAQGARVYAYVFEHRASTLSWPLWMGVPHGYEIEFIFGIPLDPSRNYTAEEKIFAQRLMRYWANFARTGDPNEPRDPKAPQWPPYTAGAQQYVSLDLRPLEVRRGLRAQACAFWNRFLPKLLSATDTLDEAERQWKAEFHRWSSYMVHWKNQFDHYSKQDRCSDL
- protocol-details: biochemical
- conditions: read-out: % inhibition AChE
Only the number, expressed in %, is required.

Record OC[C@H]1O[C@@H](n2cc(CSc3ccc(-c4ccccn4)nn3)nn2)[C@H](O)[C@@H]1O [Compound 8] , field inhibition at 0.01 µM: 26

Notebook: CC(=O)OCC1OC(n2cc(CSc3ccc(-c4ccccn4)nn3)nn2)C(OC(C)=O)C(OC(C)=O)C1OC(C)=O (stereo not drawn) [Compound 3] , inhibition at 0.01 µM read as 7.4

The reported inhibition at 0.01 µM of the compound OCCOCCn1cc(CSc2ccc(-c3ccccn3)nn2)nn1 [Compound 9] was 35

So for C#CCSc1ccc(-c2ccccn2)nn1 [Compound 1] , the logged inhibition at 0.01 µM turned out to be 6.1

Sure, the documented inhibition at 0.01 µM for OCCn1cc(CSc2ccc(-c3ccccn3)nn2)nn1 [Compound 10] is 24

Short answer for NCCn1cc(CSc2ccc(-c3ccccn3)nn2)nn1 [Compound 11] : inhibition at 0.01 µM was 7.5

* * *

- system-under-test: acetylcholinesterase (AChE) (Homo sapiens, UniProt P22303);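 further: Kit-based enzyme assay using enzymes of human origin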
- protocol-details: biochemical
- conditions: read-out: % inhibition AChE
recorded-metric: inhibition at 0.01 µM

Documented inhibition at 0.01 µM of CC(=O)OC1COC(n2cc(CSc3ccc(-c4ccccn4)nn3)nn2)C(OC(C)=O)C1OC(C)=O (stereo not shown) : 42%

Entry OC[C@H]1O[C@@H](n2cc(CSc3ccc(-c4ccccn4)nn3)nn2)[C@H](O)[C@@H](O)[C@@H]1O — recorded inhibition at 0.01 µM = 14%

Per the record, CC(=O)OC[C@H]1O[C@@H](n2cc(CSc3ccc(-c4ccccn4)nn3)nn2)[C@H](OC(C)=O)[C@@H]1OC(C)=O has inhibition at 0.01 µM of 9%

Looking up CC(=O)OC[C@H]1O[C@@H](n2cc(CSc3ccc(-c4ccccn4)nn3)nn2)[C@H](OC(C)=O)[C@@H](OC(C)=O)[C@H]1OC(C)=O , I found its inhibition at 0.01 µM recorded as 11%

* * *

Exercise: state measured IC50 for each of the molecules provided.
- system-under-test: UniProt P22303
- protocol-details: biochemical
- conditions: IC50 against acetylcholinesterase (AChE), human enzyme; dose response 0.01 to 100 µM
Number only, in µM; omit the unit.

// field: IC50; key: OC[C@H]1O[C@@H](n2cc(CSc3ccc(-c4ccccn4)nn3)nn2)[C@H](O)[C@@H](O)[C@@H]1O [Compound 7] ; value = 3.14

For reference, reported IC50 for NCCn1cc(CSc2ccc(-c3ccccn3)nn2)nn1 [Compound 11] stands at 14.6

Please fill in: IC50 reported for CC(=O)OC[C@H]1O[C@@H](n2cc(CSc3ccc(-c4ccccn4)nn3)nn2)[C@H](OC(C)=O)[C@@H]1OC(C)=O [Compound 6] = 9.15

The molecule listed as C#CCSc1ccc(-c2ccccn2)nn1 [Compound 1] has a reported IC50 of 11.5

What the record says about OCCn1cc(CSc2ccc(-c3ccccn3)nn2)nn1 [Compound 10] : IC50 is 1.84

The molecule identified as OC[C@H]1O[C@@H](n2cc(CSc3ccc(-c4ccccn4)nn3)nn2)[C@H](O)[C@@H]1O [Compound 8] registered its IC50 at 0.64

Form: molecule = CC(=O)OC[C@H]1O[C@@H](n2cc(CSc3ccc(-c4ccccn4)nn3)nn2)[C@H](OC(C)=O)[C@@H](OC(C)=O)[C@H]1OC(C)=O [Compound 4] ; IC50 = 11.9
